# SYSTEM_UNDER_TEST: Prostaglandin G/H synthase 2 (Ovis aries, UniProt P79208)
# Sequence (P79208 whole entry): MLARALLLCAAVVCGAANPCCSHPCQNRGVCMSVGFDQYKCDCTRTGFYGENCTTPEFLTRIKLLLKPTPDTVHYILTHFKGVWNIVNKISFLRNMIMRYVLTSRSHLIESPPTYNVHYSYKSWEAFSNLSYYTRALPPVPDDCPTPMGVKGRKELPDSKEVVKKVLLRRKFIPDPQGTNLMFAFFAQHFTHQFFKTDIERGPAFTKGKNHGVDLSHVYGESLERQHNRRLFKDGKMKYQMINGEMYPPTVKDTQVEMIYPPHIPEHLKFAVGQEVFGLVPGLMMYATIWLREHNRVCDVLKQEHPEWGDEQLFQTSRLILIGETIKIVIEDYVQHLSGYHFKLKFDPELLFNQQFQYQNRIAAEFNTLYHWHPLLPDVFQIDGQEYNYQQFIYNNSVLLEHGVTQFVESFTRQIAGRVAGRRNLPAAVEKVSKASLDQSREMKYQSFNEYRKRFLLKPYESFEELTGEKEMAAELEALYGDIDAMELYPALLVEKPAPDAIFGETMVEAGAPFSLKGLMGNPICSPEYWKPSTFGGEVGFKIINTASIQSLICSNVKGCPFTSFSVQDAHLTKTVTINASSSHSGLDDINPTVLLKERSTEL
# PROCEDURE_SUMMARY: Inhibition of ovine COX2
ASSAY_METRIC: pIC50
// scale note: pIC50 = -log10(conc_M); give the bare number

Q: Item under review: CC(C)=CCCC(C(=O)O)C1CNC(=N)N1 (stereo unspecified) . Reported pIC50?
Result: 3.08

###

# SYSTEM_UNDER_TEST: Prostaglandin G/H synthase 2 (Homo sapiens, UniProt P35354)
# Sequence (P35354 whole entry): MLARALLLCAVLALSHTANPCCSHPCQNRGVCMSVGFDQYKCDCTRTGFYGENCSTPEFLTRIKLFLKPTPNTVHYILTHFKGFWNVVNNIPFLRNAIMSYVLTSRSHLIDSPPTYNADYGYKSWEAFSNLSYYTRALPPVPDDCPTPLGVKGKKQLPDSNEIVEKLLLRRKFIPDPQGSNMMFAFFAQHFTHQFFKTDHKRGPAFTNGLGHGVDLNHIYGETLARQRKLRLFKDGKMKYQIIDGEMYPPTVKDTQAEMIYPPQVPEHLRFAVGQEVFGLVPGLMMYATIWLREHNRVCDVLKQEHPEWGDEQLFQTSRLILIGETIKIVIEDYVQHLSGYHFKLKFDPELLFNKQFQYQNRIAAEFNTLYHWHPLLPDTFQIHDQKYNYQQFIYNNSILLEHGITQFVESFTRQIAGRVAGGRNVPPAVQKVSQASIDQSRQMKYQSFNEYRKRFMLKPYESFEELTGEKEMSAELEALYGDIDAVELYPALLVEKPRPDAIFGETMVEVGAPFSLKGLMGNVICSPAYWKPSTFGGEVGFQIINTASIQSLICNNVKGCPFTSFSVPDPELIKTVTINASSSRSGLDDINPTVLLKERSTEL
ASSAY_METRIC: IC50 (µM)
Write the number in µM without appending the unit.

Worked set:
[[record]]
compound = "COOC[C@@]1(C)CC[C@]2(C)CC[C@]3(C)[C@@H]4CCc5cc(O)c(O)cc5[C@]4(C)CC[C@@]3(C)C2C1 (stereo partly drawn)"
system_under_test = "Prostaglandin G/H synthase 2 (Homo sapiens, UniProt P35354)"
assay_metric = "IC50"
value_reported = 430

[[record]]
compound = "COOC[C@@]1(C)CC[C@]2(C)CC[C@]3(C)[C@@H]4CC(=O)c5cc(OC)c(O)cc5[C@]4(C)CC[C@@]3(C)C2C1 (stereo partly drawn)"
system_under_test = "Prostaglandin G/H synthase 2 (Homo sapiens, UniProt P35354)"
assay_metric = "IC50"
value_reported = 660


Here is another compound to look at.
Q: Item under review: C=C(C)[C@@H]1CC[C@]2(C)CC[C@]3(C)[C@H](CCC4[C@@]5(C)[C@H](O)C[C@H](O)C(C)(C)[C@@H]5CC[C@]43C)[C@@H]12 (stereo partly drawn) . Reported IC50?
Result: 450

###

Listing of entries alongside the reported inhibition at 30 µM.
# System: RAW264.7
# PROCEDURE_SUMMARY: Antiinflammatory activity against mouse RAW264.7 cells assessed as inhibition of LPS induced iNOS at 30 uM preincubated for 1 hr followed by LPS stimulation measured after 18 hrs relative to control
# Assay type: functional
Write the number in % without appending the unit.

Worked set:
[[record]]
smiles_text = "C=C1CC[C@]2(C(=O)O[C@@H]3O[C@H](CO)[C@@H](O)[C@H](O)[C@H]3O)CC[C@]3(C)C(=CC[C@@H]4[C@@]5(C)CC[C@H](O[C@@H]6OC[C@@H](O)[C@H](O)[C@H]6O[C@@H]6O[C@H](CO)[C@@H](O)[C@H](O)[C@H]6O)C(C)(C)[C@@H]5CC[C@]43C)[C@@H]2[C@H]1C"
assay_metric = "inhibition at 30 µM"
value_reported = 75.9

[[record]]
smiles_text = "CC1(C)CC[C@]2(C(=O)O[C@@H]3O[C@H](CO)[C@@H](O)[C@H](O)[C@H]3O)CC[C@]3(C)C(=CC[C@@H]4[C@@]5(C)CC[C@H](O[C@@H]6O[C@H](C(=O)O)[C@@H](O)[C@H](O)[C@H]6O)C(C)(C)[C@@H]5CC[C@]43C)[C@@H]2C1"
assay_metric = "inhibition at 30 µM"
value_reported = 92.8


Q: Item under review: CC1=C2C3=CC[C@@H]4[C@@]5(C)CC[C@H](O[C@@H]6OC[C@@H](O)[C@H](O)[C@H]6O[C@@H]6O[C@H](CO)[C@@H](O)[C@H](O)[C@H]6O)C(C)(C)[C@@H]5CC[C@@]4(C)[C@]3(C)CC[C@@]2(C(=O)O[C@@H]2O[C@H](CO)[C@@H](O)[C@H](O)[C@H]2O)CC[C@H]1C . Reported inhibition at 30 µM?
Result: 75

Q: Item under review: CC1=C(C)[C@H]2C3=CC[C@@H]4[C@@]5(C)CC[C@H](O[C@@H]6OC[C@@H](O)[C@H](O)[C@H]6O[C@@H]6O[C@H](CO)[C@@H](O)[C@H](O)[C@H]6O)C(C)(C)[C@@H]5CC[C@@]4(C)[C@]3(C)CC[C@@]2(C(=O)O[C@@H]2O[C@H](CO)[C@@H](O)[C@H](O)[C@H]2O)CC1 . Reported inhibition at 30 µM?
Result: 72

Q: Item under review: CC1(C)CC[C@]2(C(=O)O[C@@H]3O[C@H](CO)[C@@H](O)[C@H](O)[C@H]3O)CC[C@]3(C)C(=CC[C@@H]4[C@@]5(C)CC[C@H](O[C@@H]6OC[C@@H](O)[C@H](O)[C@H]6O[C@@H]6O[C@H](CO)[C@@H](O)[C@H](O)[C@H]6O)C(C)(C)[C@@H]5CC[C@]43C)[C@@H]2C1 . Reported inhibition at 30 µM?
Result: 88

Q: Item under review: CC1=C2C3=CC[C@@H]4[C@@]5(C)CC[C@H](O[C@@H]6OC[C@@H](O)[C@H](O)[C@H]6O)C(C)(C)[C@@H]5CC[C@@]4(C)[C@]3(C)CC[C@@]2(C(=O)O[C@@H]2O[C@H](CO)[C@@H](O)[C@H](O)[C@H]2O)CC[C@H]1C . Reported inhibition at 30 µM?
Result: 64.9

###

# SYSTEM_UNDER_TEST: Prostaglandin G/H synthase 2 (Homo sapiens) (UniProt P35354)
# PROCEDURE_SUMMARY: Inhibition of human COX2 at 10 uM using arachidonic acid as substrate measured for 300 secs intervals from 3 to 10 secs in presence of hematin by fluorescence assay relative to control
ASSAY_METRIC: inhibition (%)
Write the number in % without appending the unit.

[[record]]
molecule = "COc1cc(OC)c(C(=O)/C=C/c2ccc(O)cc2)c(OC)c1"
unit = "%"
value_reported = 62.2

[[record]]
molecule = "COc1cc(O)cc2c1C(=O)C(Cc1ccc(O)cc1)CO2 (stereo unspecified)"
unit = "%"
value_reported = 73.8

[[record]]
molecule = "COc1ccc(CC2(O)COc3cc(O)cc(O)c3C2=O)cc1 (stereo unspecified)"
unit = "%"
value_reported = 71.4

[[record]]
molecule = "COc1cc(O)c2c(c1)OCC1(Cc3c1cc(OC)c(OC)c3O)C2=O (stereo unspecified)"
unit = "%"
value_reported = 101

[[record]]
molecule = "O=C1c2c(O)cc(O)cc2OCC1Cc1ccc(O)cc1 (stereo unspecified)"
unit = "%"
value_reported = 13.3


Here is another molecule to look at.
Q: Item under review: COc1ccc(CC2COc3cc(O)cc(O)c3C2=O)cc1 (stereo unspecified) . Reported inhibition?
Result: 20.9

###

# Tested on: RAW264.7
# PROCEDURE_SUMMARY: Antiinflammatory activity in mouse RAW264.7 cells assessed as inhibition of LPS-induced nitric oxide production at […] after 24 hrs by Griess reagent based assay relative to control
# Assay type: functional
# Parameters: dose or concentration left out as unconfirmed
# COND: RAW264.7, 24 h
Outcome label depends on inhibition relative to 80%: at/above gives Criterion met, below gives Criterion not met.

Some solved entries appear below for comparison.
[[record]]
molecule = "CC(C)=CC[C@@H]1C[C@]23C[C@@H](CC=C(C)C)C(C)(C)[C@](CC=C(C)C)(C(=O)C(C(=O)c4ccc(O)c(O)c4)=C2OC1(C)C)C3=O"
system_under_test = "RAW264.7"
label = "Criterion met"

[[record]]
molecule = "CC(C)=CCOc1cc(O)c2c(=O)c3cc(OCC=C(C)C)c(O)cc3oc2c1"
system_under_test = "RAW264.7"
label = "Criterion met"


Q: Tell me whether inhibition is at least 80% here: COc1cc(C)c2c(=O)c3c(O)cc(OC)cc3oc2c1 [LICHEXANTHONE]
Result: Criterion not met

Q: Tell me whether inhibition is at least 80% here: O=c1c2cc(O)c(O)cc2oc2cc(O)cc(O)c12
Result: Criterion not met
